System: 454973-116-R2-J3-PDC complex spheroid viability
Assay: Anticancer human tumor 454973-116-R2-J3-PDC patient-derived pancreatic carcinoma cell line growth inhibition [POLQ]
Details: second compound 0.0316 µM; first compound 1 µM; active compounds read low
// reported viability, T/C per item
Provide the reading as a plain figure in %.

Example entries and their recorded answers appear below.
1. Nc1ccn(C2OC(CO)C(O)C2(F)F)c(=O)n1 (stereo unspecified) + COC1C(OC(N)=O)C(O)C(Oc2ccc3c(O)c(NC(=O)c4ccc(O)c(CC=C(C)C)c4)c(=O)oc3c2C)OC1(C)C    11.3
2. CCc1c2c(nc3ccc(O)cc13)-c1cc3c(c(=O)n1C2)COC(=O)[C@]3(O)CC + Nc1ccc(C#CCN(C(=O)Cc2ncc(C(F)(F)F)cc2C(F)(F)F)c2ccc(F)cc2)nn1    1.11
3. C=CC(=O)N1CCN(c2nc(=O)n(-c3c(C)ccnc3C(C)C)c3nc(-c4c(O)cccc4F)c(F)cc23)C(C)C1 (stereo unspecified) + Nc1ccc(C#CCN(C(=O)Cc2ncc(C(F)(F)F)cc2C(F)(F)F)c2ccc(F)cc2)nn1    111
4. CCCS(=O)(=O)Nc1ccc(F)c(C(=O)c2c[nH]c3ncc(-c4ccc(Cl)cc4)cc23)c1F + Nc1ccc(C#CCN(C(=O)Cc2ncc(C(F)(F)F)cc2C(F)(F)F)c2ccc(F)cc2)nn1    114
5. COc1cccc(OCCCN)c1-c1cc(Nc2cnc(C#N)cn2)n[nH]1 + COC1C(OC(N)=O)C(O)C(Oc2ccc3c(O)c(NC(=O)c4ccc(O)c(CC=C(C)C)c4)c(=O)oc3c2C)OC1(C)C    5.48
6. COc1cc2cc(C(=O)CCC(=O)O)sc2cc1OC + COC1C(OC(N)=O)C(O)C(Oc2ccc3c(O)c(NC(=O)c4ccc(O)c(CC=C(C)C)c4)c(=O)oc3c2C)OC1(C)C    121
7. C=CCn1c(=O)c2cnc(Nc3ccc(N4CCN(C)CC4)cc3)nc2n1-c1cccc(C(C)(C)O)n1 + Nc1ccc(C#CCN(C(=O)Cc2ncc(C(F)(F)F)cc2C(F)(F)F)c2ccc(F)cc2)nn1    9.62
8. COc1cc2cc(C(=O)CCC(=O)O)sc2cc1OC + Cc1cccc(N(C)C(=O)C2C(O)CCN2c2nc(C)cc(C(F)(F)F)c2C#N)c1    102
9. O=C(c1cc(Cc2n[nH]c(=O)c3ccccc23)ccc1F)N1CCN(C(=O)C2CC2)CC1 + Nc1ccc(C#CCN(C(=O)Cc2ncc(C(F)(F)F)cc2C(F)(F)F)c2ccc(F)cc2)nn1    91
10. CC(C)n1c(=O)n(C)c2cnc3cc(F)c(-c4ccc(OCCCN5CCCCC5)nc4)cc3c21 + Nc1ccc(C#CCN(C(=O)Cc2ncc(C(F)(F)F)cc2C(F)(F)F)c2ccc(F)cc2)nn1    96.7

**Query** // map CC1COCCN1c1cc(C2(S(C)(=N)=O)CC2)nc(-c2ccnc3[nH]ccc23)n1 (stereo unspecified) + Nc1ccc(C#CCN(C(=O)Cc2ncc(C(F)(F)F)cc2C(F)(F)F)c2ccc(F)cc2)nn1 to recorded viability, T/C (system: 454973-116-R2-J3-PDC complex spheroid viability)
**Result** 100

**Query** Another compound: CC1COCCN1c1cc(C2(O)CC3CCC(C2)O3)c2cnn(-c3ccn[nH]3)c2n1 (stereo unspecified) + Cc1cccc(N(C)C(=O)C2C(O)CCN2c2nc(C)cc(C(F)(F)F)c2C#N)c1
**Result** 22.8

**Query** Another compound: CCc1cc2c(N3CCc4c(cc(Cn5ccnc5)cc4-c4cn(C)nc4C(F)(F)F)C3=O)cc(C)nc2c(OC)n1 + COC1C(OC(N)=O)C(O)C(Oc2ccc3c(O)c(NC(=O)c4ccc(O)c(CC=C(C)C)c4)c(=O)oc3c2C)OC1(C)C
**Result** 87.9

**Query** Another compound: COc1cccc2c1C(=O)c1c(O)c3c(c(O)c1C2=O)CC(O)(C(=O)CO)CC3OC1CC(N)C(O)C(C)O1 (stereo unspecified) + Nc1ccc(C#CCN(C(=O)Cc2ncc(C(F)(F)F)cc2C(F)(F)F)c2ccc(F)cc2)nn1
**Result** 5.05

**Query** Another compound: CCc1cc2c(N3CCc4c(cc(Cn5ccnc5)cc4-c4cn(C)nc4C(F)(F)F)C3=O)ccnc2c(OC)n1 + Nc1ccc(C#CCN(C(=O)Cc2ncc(C(F)(F)F)cc2C(F)(F)F)c2ccc(F)cc2)nn1
**Result** 78.7

----------
System: 454973-116-R2-J3-PDC complex spheroid viability
Assay: Anticancer human tumor 454973-116-R2-J3-PDC cell line growth inhibition [POLQ]; active = viability on the fitted dose curve at most 10% of control; inactive = the rest;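 note: spheroids exposed to drugs for seven days before measurement; percent viability relative to DMSO vehicle control wells taken as 100%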
Settings: second compound 3.16 µM; first compound 0.0316 µM
Please reply with one of these outcomes: class 1 (active), class 0 (inactive)

**Query** For CCCS(=O)(=O)Nc1ccc(F)c(C(=O)c2c[nH]c3ncc(-c4ccc(Cl)cc4)cc23)c1F + Cc1cccc(N(C)C(=O)C2C(O)CCN2c2nc(C)cc(C(F)(F)F)c2C#N)c1 , which call appears in the assay record?
**Result** class 0

**Query** Another molecule: CC[C@@]1(O)C(=O)OCc2c1cc1n(c2=O)Cc2cc3c(CN(C)C)c(O)ccc3nc2-1 + Nc1ccc(C#CCN(C(=O)Cc2ncc(C(F)(F)F)cc2C(F)(F)F)c2ccc(F)cc2)nn1
**Result** class 0

----------
// reported viability, T/C per item
Tested on: 454973-116-R2-J3-PDC complex spheroid viability
Experiment: Anticancer human tumor 454973-116-R2-J3-PDC cell line growth inhibition [POLQ];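 note: spheroids exposed to drugs for seven days before measurement; percent viability relative to DMSO vehicle control wells taken as 100%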
Details: second compound 0.1 µM; first compound 0.0316 µM; active compounds read low
Provide the reading as a plain figure in %.

1) O=C(Nc1ccc(O)c(NS(=O)(=O)c2ccc(F)cc2)c1)c1ccc(-c2ccccc2)cc1 + COC1C(OC(N)=O)C(O)C(Oc2ccc3c(O)c(NC(=O)c4ccc(O)c(CC=C(C)C)c4)c(=O)oc3c2C)OC1(C)C    101
2) COc1cc(C2c3cc4c(cc3C(OC3OC5COC(C)OC5C(O)C3O)C3COC(=O)C23)OCO4)cc(OC)c1O (stereo not given) + COC1C(OC(N)=O)C(O)C(Oc2ccc3c(O)c(NC(=O)c4ccc(O)c(CC=C(C)C)c4)c(=O)oc3c2C)OC1(C)C    100
3) CCc1cc2c(N3CCc4c(cc(Cn5ccnc5)cc4-c4cn(C)nc4C(F)(F)F)C3=O)cc(C)nc2c(OC)n1 + COC1C(OC(N)=O)C(O)C(Oc2ccc3c(O)c(NC(=O)c4ccc(O)c(CC=C(C)C)c4)c(=O)oc3c2C)OC1(C)C    94.1
4) CCc1cc2c(N3CCc4c(cc(Cn5ccnc5)cc4-c4cn(C)nc4C(F)(F)F)C3=O)ccnc2c(OC)n1 + COC1C(OC(N)=O)C(O)C(Oc2ccc3c(O)c(NC(=O)c4ccc(O)c(CC=C(C)C)c4)c(=O)oc3c2C)OC1(C)C    101
5) CCc1cc2c(N3CCc4c(cc(Cn5ccnc5)cc4-c4cn(C)nc4C(F)(F)F)C3=O)cc(C)nc2c(OC)n1 + Cc1cccc(N(C)C(=O)C2C(O)CCN2c2nc(C)cc(C(F)(F)F)c2C#N)c1    92.7
6) C=CCn1c(=O)c2cnc(Nc3ccc(N4CCN(C)CC4)cc3)nc2n1-c1cccc(C(C)(C)O)n1 + Cc1cccc(N(C)C(=O)C2C(O)CCN2c2nc(C)cc(C(F)(F)F)c2C#N)c1    102

**Query** Sample COc1cccc(OCCCN)c1-c1cc(Nc2cnc(C#N)cn2)n[nH]1 + COC1C(OC(N)=O)C(O)C(Oc2ccc3c(O)c(NC(=O)c4ccc(O)c(CC=C(C)C)c4)c(=O)oc3c2C)OC1(C)C — what was its viability, T/C?
**Result** 12.9

**Query** Another compound: CC1COCCN1c1cc(-c2ccnn2C)c2ccnc(-c3ccn[nH]3)c2n1 (stereo not given) + Nc1ccc(C#CCN(C(=O)Cc2ncc(C(F)(F)F)cc2C(F)(F)F)c2ccc(F)cc2)nn1
**Result** 80.3

**Query** Another compound: CCCS(=O)(=O)Nc1ccc(F)c(C(=O)c2c[nH]c3ncc(-c4ccc(Cl)cc4)cc23)c1F + COC1C(OC(N)=O)C(O)C(Oc2ccc3c(O)c(NC(=O)c4ccc(O)c(CC=C(C)C)c4)c(=O)oc3c2C)OC1(C)C
**Result** 98.9

**Query** Another compound: COc1cc2cc(C(=O)CCC(=O)O)sc2cc1OC + Cc1cccc(N(C)C(=O)C2C(O)CCN2c2nc(C)cc(C(F)(F)F)c2C#N)c1
**Result** 105

**Query** Another compound: COc1cccc2c1C(=O)c1c(O)c3c(c(O)c1C2=O)CC(O)(C(=O)CO)CC3OC1CC(N)C(O)C(C)O1 (stereo not given) + COC1C(OC(N)=O)C(O)C(Oc2ccc3c(O)c(NC(=O)c4ccc(O)c(CC=C(C)C)c4)c(=O)oc3c2C)OC1(C)C
**Result** 69.5

**Query** Another compound: COc1cccc2c1C(=O)c1c(O)c3c(c(O)c1C2=O)CC(O)(C(=O)CO)CC3OC1CC(N)C(O)C(C)O1 (stereo not given) + Nc1ccc(C#CCN(C(=O)Cc2ncc(C(F)(F)F)cc2C(F)(F)F)c2ccc(F)cc2)nn1
**Result** 54.4

**Query** Another compound: COc1ccc([C@@H](O)c2cc(-c3ncnc4cc(N5CCOCC5)ccc34)c(F)cc2Cl)nn1 + Cc1cccc(N(C)C(=O)C2C(O)CCN2c2nc(C)cc(C(F)(F)F)c2C#N)c1
**Result** 104

**Query** Another compound: C=CC(=O)N1CCN(c2nc(=O)n(-c3c(C)ccnc3C(C)C)c3nc(-c4c(O)cccc4F)c(F)cc23)C(C)C1 (stereo not given) + Nc1ccc(C#CCN(C(=O)Cc2ncc(C(F)(F)F)cc2C(F)(F)F)c2ccc(F)cc2)nn1
**Result** 103

**Query** Another compound: CC1COCCN1c1cc(C2(S(C)(=N)=O)CC2)nc(-c2ccnc3[nH]ccc23)n1 (stereo not given) + Nc1ccc(C#CCN(C(=O)Cc2ncc(C(F)(F)F)cc2C(F)(F)F)c2ccc(F)cc2)nn1
**Result** 99.5

**Query** Another compound: C=CC(=O)N1CCN(c2nc(=O)n(-c3c(C)ccnc3C(C)C)c3nc(-c4c(O)cccc4F)c(F)cc23)C(C)C1 (stereo not given) + COC1C(OC(N)=O)C(O)C(Oc2ccc3c(O)c(NC(=O)c4ccc(O)c(CC=C(C)C)c4)c(=O)oc3c2C)OC1(C)C
**Result** 108
